Experiment: Intrinsic clearance in rat liver microsomes
Assay type: ADME, Microsome
Details: read-out: CLH
observation.type: CLint scaled (mL/min/kg)
Provide only the numeric value, understood in mL/min/kg.

Lookup: Find the recorded CLint scaled belonging to CC(=O)Nc1ccc(-c2ccc(NC[C@@H]3CC34CCN(CC3CCOCC3)CC4)nn2)cc1 and report it.
Found: 6.2

====

log10 of IC50 values for the compounds below.
Target: Muscarinic acetylcholine receptor M4 (Homo sapiens, UniProt P08173)
Sequence (P08173 whole entry): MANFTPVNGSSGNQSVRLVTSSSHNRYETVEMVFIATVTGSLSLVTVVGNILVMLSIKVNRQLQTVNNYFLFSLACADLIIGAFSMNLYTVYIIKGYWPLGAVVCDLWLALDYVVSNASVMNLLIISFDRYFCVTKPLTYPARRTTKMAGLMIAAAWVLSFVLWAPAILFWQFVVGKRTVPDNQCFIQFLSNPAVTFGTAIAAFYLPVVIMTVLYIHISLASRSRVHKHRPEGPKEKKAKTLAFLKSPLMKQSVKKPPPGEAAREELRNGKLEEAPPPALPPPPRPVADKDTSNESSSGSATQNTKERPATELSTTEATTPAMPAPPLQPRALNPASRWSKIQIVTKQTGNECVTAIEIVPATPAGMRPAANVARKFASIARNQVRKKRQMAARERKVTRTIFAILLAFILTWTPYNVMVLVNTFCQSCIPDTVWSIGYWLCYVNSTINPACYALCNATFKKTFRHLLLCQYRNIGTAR
Assay: Inhibition of human muscarinic acetylcholine M4 receptor expressed in CHO cells co-expressing Gqi5 in the presence of acetylcholine at EC80 concentration by calcium mobilization assay
Scale type: logarithmic (base 10). Underlying IC50 unit: nM.

Fc1cccc(-c2ccc(NC[C@@H]3CC34CCN(CC3CCOCC3)CC4)nn2)c1 ... 1.73
Fc1ccc(Cl)c(-c2ccc(NC3CC4(C3)CN(CC3CCOCC3)C4)nn2)c1 ... 3.46
Fc1ccc(Cl)c(-c2ccc(NCC3CC34CCN(CC3CCCCC3)CC4)nn2)c1 (centres undefined) ... 1.26

Next compound, please.
Lookup: Look up log10 of IC50 with Muscarinic acetylcholine receptor M4 (Homo sapiens, UniProt P08173) for this compound: c1ccc(-c2ccc(NC[C@@H]3CC34CCN(CC3CCOCC3)CC4)nn2)cc1
Found: 2.08

====

Assay: Tmax in mouse plasma at 3 mg/kg, ip
Format: ADME, organism-based
observation.type: Tmax (min)
Provide only the numeric value, understood in min.

Lookup: Find the recorded Tmax belonging to CC(=O)Nc1ccc(-c2ccc(NC[C@@H]3CC34CCN(CC3CCOCC3)CC4)nn2)cc1 and report it.
Found: 30

====

Assay: AUC (0 to last) in rat at 3 mg/kg, iv
Format: ADME, organism-based
Design: time 0 - last, dose 3 mg/kg, route iv
Conditions: in vivo
observation.type: AUC(0-t)

Lookup: Find the recorded AUC(0-t) belonging to CC(=O)Nc1ccc(-c2ccc(NC[C@@H]3CC34CCN(CC3CCOCC3)CC4)nn2)cc1 and report it.
Found: 181 ng·h/mL

====

Test: Cmax in rat plasma at 3 mg/kg, ip
Format: ADME, organism-based
Set-up: dose 3 mg/kg, route ip
observation.type: Cmax (ng/mL)
Provide only the numeric value, understood in ng/mL.

Lookup: Find the recorded Cmax belonging to CC(=O)Nc1ccc(-c2ccc(NC[C@@H]3CC34CCN(CC3CCOCC3)CC4)nn2)cc1 and report it.
Found: 6700

====

Molecular target: Muscarinic acetylcholine receptor M3 (Rattus norvegicus, UniProt P08483)
Sequence (P08483 whole entry): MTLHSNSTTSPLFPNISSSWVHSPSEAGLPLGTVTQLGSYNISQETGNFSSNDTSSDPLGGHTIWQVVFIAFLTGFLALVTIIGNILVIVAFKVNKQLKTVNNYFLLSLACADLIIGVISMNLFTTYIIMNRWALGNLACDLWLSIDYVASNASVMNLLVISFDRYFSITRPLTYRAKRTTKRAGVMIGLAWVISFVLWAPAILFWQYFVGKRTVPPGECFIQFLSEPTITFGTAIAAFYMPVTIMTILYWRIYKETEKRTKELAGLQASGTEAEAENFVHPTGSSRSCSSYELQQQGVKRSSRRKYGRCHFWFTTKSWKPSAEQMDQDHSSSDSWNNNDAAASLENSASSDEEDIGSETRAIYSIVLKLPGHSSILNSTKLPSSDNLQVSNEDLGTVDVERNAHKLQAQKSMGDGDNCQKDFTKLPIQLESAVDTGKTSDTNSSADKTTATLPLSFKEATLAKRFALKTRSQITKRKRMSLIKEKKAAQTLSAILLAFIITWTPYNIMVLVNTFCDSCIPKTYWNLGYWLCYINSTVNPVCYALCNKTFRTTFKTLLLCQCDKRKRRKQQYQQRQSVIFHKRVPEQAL
Experiment: Inhibition of rat muscarinic acetylcholine M3 receptor expressed in CHO cells co-expressing Gqi5 preincubated with compound followed by acetylcholine addition at EC80 concentration by calcium mobilization assay
observation.type: IC50

Lookup: Look up IC50 with Muscarinic acetylcholine receptor M3 (Rattus norvegicus, UniProt P08483) for this molecule: CC(=O)Nc1ccc(-c2ccc(NC[C@@H]3CC34CCN(CC3CCOCC3)CC4)nn2)cc1
Found: > 10 µM

====

Molecular target: Muscarinic acetylcholine receptor M4 (Homo sapiens, UniProt P08173)
Assay: Inhibition of human muscarinic acetylcholine M4 receptor expressed in CHO cells co-expressing Gqi5 in the presence of acetylcholine at EC80 concentration by calcium mobilization assay
IC50 values for the compounds below.
Provide only the numeric value, understood in µM.

Examples with answers:
Fc1ccc(Cl)c(-c2ccc(NC[C@H]3CC34CCN(CC3CCCCC3)CC4)nn2)c1 ... 0.028
CC(=O)Nc1ccc(-c2ccc(NC[C@@H]3CC34CCN(CC3CCOCC3)CC4)nn2)cc1 ... 0.071
[2H]C([2H])(C1CCOCC1)N1CCC2(CC1)C[C@H]2CNc1ccc(-c2cc(F)cc(F)c2F)nn1 ... 0.042
Cn1cc2cc(-c3ccc(NC[C@@H]4CC45CCN(CC4CCOCC4)CC5)nn3)ccc2n1 ... 0.13

Lookup: Find the recorded IC50 belonging to Fc1ccc(Cl)c(-c2ccc(NC[C@@H]3CC34CCN(CC3CCCCC3)CC4)nn2)c1 and report it.
Found: 0.012

Lookup: Find the recorded IC50 belonging to Fc1ccc(F)c(-c2ccc(NC[C@@H]3CC34CCN(CC3CCOCC3)CC4)nn2)c1 and report it.
Found: 0.052

Just for reference, ChEMBL document CHEMBL5131409 is where these values come from.
